target: T1, human CCR8 (human, UniProt P51685 1-355); assay: flow cytometry on 293F-hCCR8 cells
T1 construct: whole, on cells; the cell line is named under assay; also called hCCR8
T1 sequence (P51685 whole entry): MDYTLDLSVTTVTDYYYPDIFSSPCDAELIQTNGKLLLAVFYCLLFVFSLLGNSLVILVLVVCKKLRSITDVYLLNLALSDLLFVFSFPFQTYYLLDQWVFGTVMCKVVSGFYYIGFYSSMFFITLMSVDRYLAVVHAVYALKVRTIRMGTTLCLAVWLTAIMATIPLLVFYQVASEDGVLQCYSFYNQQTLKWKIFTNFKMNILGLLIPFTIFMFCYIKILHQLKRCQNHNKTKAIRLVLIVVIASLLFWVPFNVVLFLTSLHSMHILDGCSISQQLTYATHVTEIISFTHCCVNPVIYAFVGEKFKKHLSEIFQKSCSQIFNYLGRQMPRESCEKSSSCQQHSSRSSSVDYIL
Each record is given label 1 if its reported EC50 is strictly below 0.2 µg/mL. Records at or above 0.2 µg/mL are given label 0.

Example cases with answers are listed next.
| binder | category |
| --- | --- |
| 27B9-1G3_hzH2L3_hIgG1 (antibody, V domains shown, Humanized, hIgG1/K; hzVH02 + hzVL03) VH: QVQLVQSGAEVKKPGSSVKVSCKASGYSFTGYNMNWVRQAPGQGLEWMGNIDPYYGGTNYNQKFKGRVTITADKSTSTAYMELSSLRSEDTAVYYCARETWFITTGVIKKGFYFDYWGQGTTVTVSS VL: EIVLTQSPATLSLSPGERATLACSASSIISSNYLHWYQQKPGQSPRLLIYRTSSLASGVPARFSGSGSGTSYTLTISSLEPEDFAVYYCQQGSSIPRTFGGGTKVEIKR | label 0 |
| 27B9-1G3_hzH4L1_hIgG1 (antibody, V domains shown, Humanized, hIgG1/K; hzVH04 + hzVL01) VH: QVQLVQSGAEVKKPGSSVKVSCKASGYSFTGYNMNWVRQAPGQGLEWMGNIDPYYGGTNYNQKFKGKATITADKSTSTAYMELSSLRSEDTAVYYCARETWFITTGVIKKGFYFDYWGQGTTVTVSS VL: EIVLTQSPATLSLSPGERATLSCSASSIISSNYLHWYQQKPGQAPRLLIYRTSSLASGIPARFSGSGSGTDFTLTISSLEPEDFAVYYCQQGSSIPRTFGGGTKVEIKR | label 1 |

Attention now turns to another entry.
In the record for 27B9-1G3_hzH2L2_hIgG1 (antibody, V domains shown, Humanized, hIgG1/K; hzVH02 + hzVL02) VH: QVQLVQSGAEVKKPGSSVKVSCKASGYSFTGYNMNWVRQAPGQGLEWMGNIDPYYGGTNYNQKFKGRVTITADKSTSTAYMELSSLRSEDTAVYYCARETWFITTGVIKKGFYFDYWGQGTTVTVSS VL: EIVLTQSPATLSLSPGERATLACSASSIISSNYLHWYQQKPGQAPRLLIYRTSSLASGIPARFSGSGSGTDYTLTISSLEPEDFAVYYCQQGSSIPRTFGGGTKVEIKR , is EC50 less than 0.2 µg/mL?
label 1
